- Tested on: CN0375-F725-PDC KRAS spheroid viability
- protocol-summary: Anticancer human tumor CN0375-F725-PDC patient-derived colon carcinoma cell line growth inhibition [KRAS2]
- experimental-setup: curve of first compound; second compound 10 µM; spheroids with HUVEC and MSC
pIC50: −log10 of the molar value.
recorded-metric: pIC50

>  <compound>
CCNC(=O)CC1N=C(c2ccc(Cl)cc2)c2cc(OC)ccc2-n2c(C)nnc21 (stereo not drawn) + CC1OCC2(CCN(c3cnc(Sc4ccnc(N)c4Cl)c(N)n3)CC2)C1N

>  <recorded-metric>
pIC50

>  <test-value>
5.84

$$$$
>  <compound>
CN(C)C/C=C/C(=O)Nc1cc2c(Nc3ccc(F)c(Cl)c3)ncnc2cc1O[C@H]1CCOC1 + C=CC(=O)N1CCN(c2nc(=O)n(-c3c(C)ccnc3C(C)C)c3nc(-c4c(O)cccc4F)c(F)cc23)C(C)C1

>  <recorded-metric>
pIC50

>  <test-value>
< 7.00

$$$$
>  <compound>
COC(=O)c1ccc2c(C(=Nc3ccc(N(C)C(=O)CN4CCN(C)CC4)cc3)c3ccccc3)c(O)[nH]c2c1 + COc1cc2nc(C)nc(NC(C)c3cc(N)cc(C(F)(F)F)c3)c2cc1OC1CCOC1

>  <recorded-metric>
pIC50

>  <test-value>
> 7.50

$$$$

###

- Test system: CN0375-F725-PDC KRAS spheroid viability
- protocol-summary: Anticancer human tumor CN0375-F725-PDC cell line growth inhibition [KRAS2];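 further: spheroids exposed to agents for 7 days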
- experimental-setup: compound 0.000316 µM; stronger effect = lower value; spheroids with HUVEC and MSC
Reported viability, T/C by item:

>  <item-smiles>
CC(=O)Nc1cccc(-n2c(=O)n(C3CC3)c(=O)c3c(Nc4ccc(I)cc4F)n(C)c(=O)c(C)c32)c1

>  <viability, T/C>
84.8% [middle of 5 runs]

$$$$
>  <item-smiles>
CC(C)n1nc(-c2ccc3oc(N)nc3c2)c2c(N)ncnc21

>  <viability, T/C>
97.5% [middle of 5 runs]

$$$$
>  <item-smiles>
Cn1ncnc1[C@H]1c2n[nH]c(=O)c3cc(F)cc(c23)N[C@@H]1c1ccc(F)cc1

>  <viability, T/C>
107% [middle of 5 runs]

$$$$
>  <item-smiles>
CN(C)C/C=C/C(=O)Nc1cc2c(Nc3ccc(F)c(Cl)c3)ncnc2cc1O[C@H]1CCOC1

>  <viability, T/C>
105% [middle of 5 runs]

$$$$

###

Reported viability, T/C by item:
- Test system: CN0375-F725-PDC KRAS spheroid viability
- protocol-summary: Anticancer human tumor CN0375-F725-PDC cell line growth inhibition [KRAS2];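 further: spheroids exposed to agents for 7 days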
- experimental-setup: second compound 1 µM; first compound 0.01 µM; stronger effect = lower value; spheroids with HUVEC and MSC
- From the text: Multicellular complex tumor spheroid response to RAS pathway inhibitors in combination with a targeted agents in patient-derived cell lines with oncogenic KRAS variants from multiple cancer types A high-throughput screen of multi-cell type tumor spheroids was designed to identify active combinations of targeted small molecules and KRAS pathway inhibitors. […] Compounds. […] If the clinical Cmax for an agent had not been determined, the highest concentration tested was 10 microM. […]

>  <compound>
CC(C)n1nc(-c2ccc3oc(N)nc3c2)c2c(N)ncnc21 + COc1cc2nc(C)nc(NC(C)c3cc(N)cc(C(F)(F)F)c3)c2cc1OC1CCOC1

>  <tested-target>
CN0375-F725-PDC KRAS spheroid viability

>  <viability, T/C>
66.4%

$$$$
>  <compound>
CN(C)C/C=C/C(=O)Nc1cc2c(Nc3ccc(F)c(Cl)c3)ncnc2cc1O[C@H]1CCOC1 + C=CC(=O)N1CCN(c2nc(=O)n(-c3c(C)ccnc3C(C)C)c3nc(-c4c(O)cccc4F)c(F)cc23)C(C)C1

>  <tested-target>
CN0375-F725-PDC KRAS spheroid viability

>  <viability, T/C>
87%

$$$$
>  <compound>
Cn1ncnc1[C@H]1c2n[nH]c(=O)c3cc(F)cc(c23)N[C@@H]1c1ccc(F)cc1 + COc1cc2nc(C)nc(NC(C)c3cc(N)cc(C(F)(F)F)c3)c2cc1OC1CCOC1

>  <tested-target>
CN0375-F725-PDC KRAS spheroid viability

>  <viability, T/C>
86.7%

$$$$
>  <compound>
Cn1ncnc1[C@H]1c2n[nH]c(=O)c3cc(F)cc(c23)N[C@@H]1c1ccc(F)cc1 + C=CC(=O)N1CCN(c2nc(OCC3CCCN3C)nc3c2CCN(c2cccc4cccc(C)c24)C3)CC1CC#N

>  <tested-target>
CN0375-F725-PDC KRAS spheroid viability

>  <viability, T/C>
87.7%

$$$$
>  <compound>
CN(C)C/C=C/C(=O)Nc1cc2c(Nc3ccc(F)c(Cl)c3)ncnc2cc1O[C@H]1CCOC1 + COc1cc2nc(C)nc(NC(C)c3cc(N)cc(C(F)(F)F)c3)c2cc1OC1CCOC1

>  <tested-target>
CN0375-F725-PDC KRAS spheroid viability

>  <viability, T/C>
82.7%

$$$$
>  <compound>
Cn1ncnc1[C@H]1c2n[nH]c(=O)c3cc(F)cc(c23)N[C@@H]1c1ccc(F)cc1 + CC1OCC2(CCN(c3cnc(Sc4ccnc(N)c4Cl)c(N)n3)CC2)C1N

>  <tested-target>
CN0375-F725-PDC KRAS spheroid viability

>  <viability, T/C>
86.3%

$$$$

###

- System: CN0375-F725-PDC KRAS spheroid viability
- protocol-summary: Anticancer human tumor CN0375-F725-PDC cell line growth inhibition [KRAS2];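 further: spheroids exposed to agents for 7 days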
- experimental-setup: second compound 1 µM; first compound 0.001 µM; stronger effect = lower value; spheroids with HUVEC and MSC
Sorting guide: entries reporting viability, T/C beneath 80% go in the Satisfied pile, the rest go in the Not satisfied pile.

>  <compound>
CC(C)n1nc(-c2ccc3oc(N)nc3c2)c2c(N)ncnc21 + CNCc1ccccc1-c1csc(C(C)Nc2nc(C)nc3cc(OC)c(OC)cc23)c1

>  <label-class>
Satisfied

$$$$
>  <compound>
CC(C)n1nc(-c2ccc3oc(N)nc3c2)c2c(N)ncnc21 + C=CC(=O)N1CCN(c2nc(OCC3CCCN3C)nc3c2CCN(c2cccc4cccc(C)c24)C3)CC1CC#N

>  <label-class>
Not satisfied

$$$$
>  <compound>
Cn1ncnc1[C@H]1c2n[nH]c(=O)c3cc(F)cc(c23)N[C@@H]1c1ccc(F)cc1 + C=CC(=O)N1CCN(c2nc(OCC3CCCN3C)nc3c2CCN(c2cccc4cccc(C)c24)C3)CC1CC#N

>  <label-class>
Not satisfied

$$$$
>  <compound>
Cn1ncnc1[C@H]1c2n[nH]c(=O)c3cc(F)cc(c23)N[C@@H]1c1ccc(F)cc1 + CNCc1ccccc1-c1csc(C(C)Nc2nc(C)nc3cc(OC)c(OC)cc23)c1

>  <label-class>
Satisfied

$$$$
>  <compound>
CC(=O)Nc1cccc(-n2c(=O)n(C3CC3)c(=O)c3c(Nc4ccc(I)cc4F)n(C)c(=O)c(C)c32)c1 + C=CC(=O)N1CCN(c2nc(=O)n(-c3c(C)ccnc3C(C)C)c3nc(-c4c(O)cccc4F)c(F)cc23)C(C)C1

>  <label-class>
Satisfied

$$$$
>  <compound>
Cn1ncnc1[C@H]1c2n[nH]c(=O)c3cc(F)cc(c23)N[C@@H]1c1ccc(F)cc1 + CC1OCC2(CCN(c3cnc(Sc4ccnc(N)c4Cl)c(N)n3)CC2)C1N

>  <label-class>
Not satisfied

$$$$
>  <compound>
CC(=O)Nc1cccc(-n2c(=O)n(C3CC3)c(=O)c3c(Nc4ccc(I)cc4F)n(C)c(=O)c(C)c32)c1 + CC1OCC2(CCN(c3cnc(Sc4ccnc(N)c4Cl)c(N)n3)CC2)C1N

>  <label-class>
Satisfied

$$$$
>  <compound>
CC(C)n1nc(-c2ccc3oc(N)nc3c2)c2c(N)ncnc21 + COc1cc2nc(C)nc(NC(C)c3cc(N)cc(C(F)(F)F)c3)c2cc1OC1CCOC1

>  <label-class>
Not satisfied

$$$$
>  <compound>
Cn1ncnc1[C@H]1c2n[nH]c(=O)c3cc(F)cc(c23)N[C@@H]1c1ccc(F)cc1 + COc1cc2nc(C)nc(NC(C)c3cc(N)cc(C(F)(F)F)c3)c2cc1OC1CCOC1

>  <label-class>
Not satisfied

$$$$

###

- Tested on: CN0375-F725-PDC KRAS spheroid viability
- protocol-summary: Anticancer human tumor CN0375-F725-PDC cell line growth inhibition [KRAS2];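 further: spheroids exposed to agents for 7 days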
- experimental-setup: second compound 0.316 µM; first compound 1 µM; stronger effect = lower value; spheroids with HUVEC and MSC
Sorting guide: entries reporting viability, T/C beneath 90% go in the 1 pile, the rest go in the 0 pile.

>  <compound>
COC(=O)c1ccc2c(C(=Nc3ccc(N(C)C(=O)CN4CCN(C)CC4)cc3)c3ccccc3)c(O)[nH]c2c1 + CC1OCC2(CCN(c3cnc(Sc4ccnc(N)c4Cl)c(N)n3)CC2)C1N

>  <label-class>
1

$$$$
>  <compound>
CC(C)NCC(C(=O)N1CCN(c2ncnc3c2C(C)CC3O)CC1)c1ccc(Cl)cc1 (stereo not given) + CC1OCC2(CCN(c3cnc(Sc4ccnc(N)c4Cl)c(N)n3)CC2)C1N

>  <label-class>
1

$$$$
>  <compound>
CCN1CCN(Cc2ccc(Nc3ncc(F)c(-c4cc(F)c5nc(C)n(C(C)C)c5c4)n3)nc2)CC1 + CC1OCC2(CCN(c3cnc(Sc4ccnc(N)c4Cl)c(N)n3)CC2)C1N

>  <label-class>
1

$$$$
>  <compound>
Cn1nccc1Nc1nccc(-c2cc3c(s2)C(C)(C)N(CCN2CCOCC2)C3=O)n1 + C=CC(=O)N1CCN(c2nc(OCC3CCCN3C)nc3c2CCN(c2cccc4cccc(C)c24)C3)CC1CC#N

>  <label-class>
1

$$$$
>  <compound>
CC1COCCN1c1cc(-c2ccnn2C)c2ccnc(-c3ccn[nH]3)c2n1 (stereo not given) + COc1cc2nc(C)nc(NC(C)c3cc(N)cc(C(F)(F)F)c3)c2cc1OC1CCOC1

>  <label-class>
1

$$$$
>  <compound>
CC1(C)CCC(CN2CCN(c3ccc(C(=O)NS(=O)(=O)c4ccc(NCC5CCOCC5)c([N+](=O)[O-])c4)c(Oc4cnc5[nH]ccc5c4)c3)CC2)=C(c2ccc(Cl)cc2)C1 + C=CC(=O)N1CCN(c2nc(OCC3CCCN3C)nc3c2CCN(c2cccc4cccc(C)c24)C3)CC1CC#N

>  <label-class>
0

$$$$
>  <compound>
COc1cc(Nc2ncc3c(n2)-c2ccc(Cl)cc2C(c2c(F)cccc2OC)=NC3)ccc1C(=O)O + C=CC(=O)N1CCN(c2nc(=O)n(-c3c(C)ccnc3C(C)C)c3nc(-c4c(O)cccc4F)c(F)cc23)C(C)C1

>  <label-class>
0

$$$$
>  <compound>
CCN1CCN(Cc2ccc(Nc3ncc(F)c(-c4cc(F)c5nc(C)n(C(C)C)c5c4)n3)nc2)CC1 + COc1cc2nc(C)nc(NC(C)c3cc(N)cc(C(F)(F)F)c3)c2cc1OC1CCOC1

>  <label-class>
1

$$$$
>  <compound>
CC1COCCN1c1cc(-c2ccnn2C)c2ccnc(-c3ccn[nH]3)c2n1 (stereo not given) + CC1OCC2(CCN(c3cnc(Sc4ccnc(N)c4Cl)c(N)n3)CC2)C1N

>  <label-class>
1

$$$$
>  <compound>
CC1(C)CCC(CN2CCN(c3ccc(C(=O)NS(=O)(=O)c4ccc(NCC5CCOCC5)c([N+](=O)[O-])c4)c(Oc4cnc5[nH]ccc5c4)c3)CC2)=C(c2ccc(Cl)cc2)C1 + CC1OCC2(CCN(c3cnc(Sc4ccnc(N)c4Cl)c(N)n3)CC2)C1N

>  <label-class>
0

$$$$
>  <compound>
CC1OCC2(CCN(c3cnc(Sc4ccnc(N)c4Cl)c(N)n3)CC2)C1N (stereo not given) + C=CC(=O)N1CCN(c2nc(=O)n(-c3c(C)ccnc3C(C)C)c3nc(-c4c(O)cccc4F)c(F)cc23)C(C)C1

>  <label-class>
1

$$$$
>  <compound>
Cn1nccc1Nc1nccc(-c2cc3c(s2)C(C)(C)N(CCN2CCOCC2)C3=O)n1 + C=CC(=O)N1CCN(c2nc(=O)n(-c3c(C)ccnc3C(C)C)c3nc(-c4c(O)cccc4F)c(F)cc23)C(C)C1

>  <label-class>
1

$$$$
